# Procedure Text: NCI Yeast Anticancer Drug Screen. Data for the bub3 strain (AID 167)
# Experimental Context: S. cerevisiae bub3 mutant strain, at 50.0 µM, active compounds read high
This is part of a sample that, as a whole, favours compounds with a hit. Of some 79,000 tested, about 15% had one in any assay.
Measurement Kind: growth inhibition (%)
Numeric answer only, unit % assumed.

Some molecules with recorded growth inhibition:
COc1ccc(OCc2nc3cc(C(F)(F)F)ccc3nc2-c2ccccc2)cc1 | 25.9
O=c1[nH]c(=O)n(C2OC(CO)C(O)C2O)cc1NN=NCc1ccccc1 (stereo not given) | -4.5
O=NC1C2CCC(C2)C1N=O.[Co].[c-]1[c-][c-][cH-][c-]1 (stereo not given) | 13.6

Request the reported growth inhibition associated with CCC(=O)OCC1OC(Oc2ccc(N=Nc3ccccc3)cc2)C(OC(=O)CC)C(OC(=O)CC)C1OC(=O)CC (stereo not given)
12.9

# repeat for CCC(C(C)O)[N+](=O)[O-] (stereo not given)
7.25

# repeat for `O=C(O)CCCC#CCCCC(=O)O`
25.8

# repeat for `NCCCn1[nH]c(=O)c2ncccc2c1=O`
-21.6

# repeat for `O=C(O)C1=C(C(=O)O)C2CCC1C2`
-11.8

# repeat for `CSc1cc(C)c(OC(=O)Nc2cc(C)ccc2C)c(C)c1`
33.2

###

Reported growth inhibition values for the following compounds.
# Procedure Text: NCI Yeast Anticancer Drug Screen. Data for the bub3 strain (AID 167)
# Experimental Context: S. cerevisiae bub3 mutant strain, at 50.0 µM, active compounds read high
About 79,000 compounds went through this panel and 15% of them were active in at least one assay; those are over-represented in the sample as a whole.
Numeric answer only, unit % assumed.

Some compounds with recorded growth inhibition:
[N-]=[N+]=Nc1ccc2[nH]c3ccccc3c(=O)c2c1 | -16.9
CCCCCCCCCCCCCCCc1cc(O)ccc1N=O | -1.05
COC(=O)C1(Cc2ccccc2)Cc2ccccc2C1=O (stereo unspecified) | 39.2
COc1cc(N=Nc2cccc(S(=O)(=O)O)c2)ccc1NC(=O)c1ccc(C(=O)Nc2ccc(N=Nc3cccc(S(=O)(=O)O)c3)cc2OC)cc1 | -13.8

Request the reported growth inhibition associated with N#Cc1c(-c2ccc(Cl)cc2)c2c(n(C3OC(CO)C(O)C(O)C3O)c1=S)CCC2 (stereo unspecified)
50.4

# repeat for c1ccc(C2OC(c3ccccc3)c3ccccc32)cc1 (stereo unspecified)
24.1

# repeat for `N#CCc1ccccc1S(=O)(=O)O`
5.05

# repeat for COC(=O)C(CC1=C(O)Nc2ccccc2N1)/C(=N/NC(N)=O)C(=O)Nc1ccccc1C (stereo unspecified)
-5.5

# repeat for `O=C1NC2(CCN(CCCC3(c4ccc(F)cc4)OCCO3)CC2)Oc2ccccc21`
5.8

# repeat for `N#C/C(=N/Nc1nc[nH]c1C(N)=O)C(=O)Nc1ccccc1`
-0.6

# repeat for `Cc1ccccc1/C=N/NC(=O)c1cccc2ccccc12`
0.75

###

# Procedure Text: NCI Yeast Anticancer Drug Screen. Data for the sgs1 mgt1 strain (AID 161);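 note: 0% = growth of cultures given vehicle only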
# Experimental Context: S. cerevisiae sgs1 mgt1 strain, at 50.0 µM, active compounds read high
The panel holds about 79,000 compounds, 15% with a hit somewhere; the sample as a whole holds those more often. Calls of active or inactive are those of the source. Rule as the data show it: active = growth inhibition above about 70%; inactive = the rest.
Reported growth inhibition values for the following compounds.

Some compounds with recorded growth inhibition:
CCOC(=O)c1nc[nH]c1C(=O)OCC | -6.1% (inactive)
COC1=CC(=O)C(C2CC(=O)c3c(O)cc(O)cc3O2)=CC1=O (stereo not drawn) | 11.2% (inactive)
Cc1ccc2nccnc2c1 | -12.2% (inactive)
CCOC(=O)C1(O)c2ccccc2NC(=S)N1CC(Br)CBr (stereo not drawn) | 15.8% (inactive)

Next:
Request the reported growth inhibition associated with `O=C(/C=C/c1ccc(O)cc1)c1ccc(O)cc1`
-37.8% (inactive)

###

# Procedure Text: NCI Yeast Anticancer Drug Screen. Data for the cln2 rad14 strain (AID 165);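 note: 0% = growth equal to vehicle treated cultures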
# Experimental Context: S. cerevisiae cln2 rad14 strain, at 50.0 µM, active compounds read high
The panel holds about 79,000 compounds, 15% with a hit somewhere; the sample as a whole holds those more often. The source made the active and inactive calls. No stated cut-off is given here; in the data, active means growth inhibition above about 70%; inactive means the rest.
Measurement Kind: growth inhibition

Some molecules with recorded growth inhibition:
COC1OC(COS(C)(=O)=O)C(OS(C)(=O)=O)C(OC(=O)c2ccccc2)C1OS(C)(=O)=O (stereo unspecified) | 1.15% (inactive)
C[Si](C)(C)CSCCO | -16.1% (inactive)
O=c1[nH]cnc2c(COCCO)c[nH]c12 | -3.95% (inactive)
COc1ccc2[nH]c(=O)cc(C)c2c1 | -37.7% (inactive)
O=C(O)c1ccc(/C=N\N(CCO)C2=NCCN2)cc1 | -31.5% (inactive)

Request the reported growth inhibition associated with `COC(=O)/N=c1\cc(N2CC=CCC2)nc(N)n1O`
18.9% (inactive)

# repeat for `O=S(=O)(CCN1CCCCC1)c1ccc(F)cc1`
-10.8% (inactive)

# repeat for `Cc1ccc(C(=O)OC(C)C)cc1N=NN(C)C`
27.1% (inactive)

# repeat for `CCC/C=C(/CC)COC(C)=O`
-7.25% (inactive)

# repeat for CCCCCCCCN(c1ccc(C(=O)NC(CCC(=O)OCC)C(=O)OCC)cc1)S(=O)(=O)c1ccc(C)cc1 (stereo unspecified)
-24.6% (inactive)

# repeat for O=C(O)C(O)C(O)C(O)C(O)C(=O)O.[Cu+2] (stereo unspecified)
0% (inactive)

# repeat for `Cn1nnc2c(C(N)=O)ncn2c1=O`
-25.2% (inactive)

# repeat for `CCOC(=O)c1ccc(CSc2ccccc2C(=O)OCC)cc1`
-60.1% (inactive)

# repeat for CCOC(=O)C1C=CC(C)N(C(=O)OCC)N1C(=O)OCC (stereo unspecified)
-2.3% (inactive)

# repeat for `C=CS(=O)(=O)c1ccc(Nc2cc(S(=O)(=O)O)c(N)c3c2C(=O)c2ccccc2C3=O)cc1`
2.9% (inactive)

# repeat for `CC(=O)OCc1cc(OC(C)=O)cnc1COC(C)=O`
-19.2% (inactive)

# repeat for COC1CCC(C2=NC3CCCCC3SC2)CC1 (stereo unspecified)
-10.6% (inactive)

# repeat for `CN(C)c1ccc(C=C2C(=O)CC(C)(C)CC2=O)cc1`
16.1% (inactive)

# repeat for CCCCC(CC)C(=S)N1CCOCC1 (stereo unspecified)
7.25% (inactive)

# repeat for `C=CCOCn1ccc(NC(=O)c2ccccc2)nc1=O`
-3.15% (inactive)

# repeat for `Cc1cc(-n2cnc3c(Cl)ncnc32)ccc1N`
5.05% (inactive)

# repeat for COC(=O)C1CSC(C)(C)N1 (stereo unspecified)
-0.95% (inactive)

# repeat for CCCC(=O)C(N)Cc1ccccc1 (stereo unspecified)
12.3% (inactive)

# repeat for CC1(c2ccco2)CCC(=O)CC1=O (stereo unspecified)
11.2% (inactive)

# repeat for `COC(=O)CCc1cc(=O)oc2ccc3cc(CC(=O)OC)oc3c12`
-6.1% (inactive)

# repeat for CCC(=O)OC1(c2ccccc2)C(CN(C)C)CCCC1CN(C)C (stereo unspecified)
-47.9% (inactive)

###

# Procedure Text: NCI Yeast Anticancer Drug Screen. Data for the bub3 strain (AID 167)
# Experimental Context: S. cerevisiae bub3 mutant strain, at 50.0 µM, active compounds read high
This is part of a sample that, as a whole, favours compounds with a hit. Of some 79,000 tested, about 15% had one in any assay.
Reported growth inhibition values for the following molecules.
Numeric answer only, unit % assumed.

Some molecules with recorded growth inhibition:
NC(Cc1ccc(O)c(O)c1)C(=O)OCc1ccccc1 (centres undefined) | 38.5
CC(=O)OCC1OC(OC(C)=O)C(Nc2ncnc3nc[nH]c23)C(OC(C)=O)C1OC(C)=O (centres undefined) | 16.5
CC(C)C1CC[C@H](C)C[C@@H]1OC(=O)C(C(=O)O[C@H]1C[C@@H](C)CCC1C(C)C)C(O)[C@@H]1OC(C)(C)O[C@H]1C1COC(C)(C)O1 (some centres undefined) | 90.8
COc1cc(NCCCCC2CCCCN2)c2ncccc2c1 (centres undefined) | 55.5
O=C(c1ccccc1)c1ccccc1C(=O)c1ccccc1 | 70.4

Next:
Request the reported growth inhibition associated with `CC1(C)CCCc2c(-c3ccccc3)cc3c4[nH]c5ccccc5c4cc[n+]3c21`
-2.5

###

# Procedure Text: NCI Yeast Anticancer Drug Screen. Data for the mec2-1 strain (AID 157)
# Experimental Context: S. cerevisiae mec2-1 strain, at 50.0 µM, active compounds read high
This is part of a sample that, as a whole, favours compounds with a hit. Of some 79,000 tested, about 15% had one in any assay.
Measurement Kind: growth inhibition (%)
Numeric answer only, unit % assumed.

Some compounds with recorded growth inhibition:
COC(=O)C1=C(c2ccccc2)c2ccc3ccccc3c2C1c1ccccc1 (stereo unspecified) | -8.25
COC(=O)C(CC(=O)[C@H]1CC[C@H]2[C@@H]3CC=C4C[C@@H](OC(C)=O)CC[C@]4(C)[C@H]3CC[C@]12C)OC(C)=O (stereo partly specified) | -6.2
O=C(O)CCC(=O)C(Cc1ccccc1)NC(=O)c1ccccc1 (stereo unspecified) | -16.6
CCOC(=O)C1C=CC(C)N(C(=O)OCC)N1C(=O)OCC (stereo unspecified) | 2.45
O=C(c1ccc(O)cc1)C1N=NCC1c1ccccc1 (stereo unspecified) | -9.8

Request the reported growth inhibition associated with C1CCC2C3CCC(O3)C2C1 (stereo unspecified)
1.05

# repeat for `CC1=C(/C=C/C(C)=C/C=C/C(C)=C/C=C/C=C(C)/C=C/C=C(C)/C=C/C=C(C)/C=C/C=C(\C)C(=O)O)C(C)(C)CCC1`
25.6

# repeat for `O=S(=O)(O)CCCO`
-44.3

# repeat for `Cc1cc2[nH]c(=O)c(=O)[nH]c2cc1C`
4.05

# repeat for CC(=O)c1ccc(C2CCC[C@H]2c2ccc(C(C)=O)cc2)cc1 (stereo partly specified)
-1.55

# repeat for Cc1cc(-c2ccc(Cl)cc2)c(C#N)c(=S)n1C1OC(CO)C(O)C(O)C1O (stereo unspecified)
-11
